The reader will find reported IC50 values listed item by item below.
# target.or.test.system: FL-SMARCA4 (Homo sapiens)
# experiment: SMARCA4 ATPase activity assay (ADP-Glo, chicken mononucleosome substrate)
# test.conditions: FL-SMARCA4 IC50, Table 3.2; ATPase assay, enzyme 5 nM, ATP 250 uM, chicken mononucleosome 10 nM, 30 min preincubation
Report only the number, with the unit µM understood.

Some solved entries appear below for comparison.
{"smiles.input": "CN(C)CCCNc1cc(NC(=O)c2cc(Cl)c(Cl)s2)cn(CCF)c1=O", "measurement.units": "µM", "IC50": 25.9}
{"smiles.input": "N#Cc1cc(C(=O)Nc2cc(F)c(=O)n(CC(F)(F)F)c2)sc1Cl", "measurement.units": "µM", "IC50": 0.342}

# input for lookup
[Q] Which measured IC50 value corresponds to `CCn1cc(NC(=O)c2cc(Cl)c(C#N)n2C)cc(F)c1=O` ?
[A] 1.47

----------
# target.or.test.system: UniProtKB P51532
# experiment: SMARCA4 ATPase activity assay (ADP-Glo, chicken mononucleosome substrate)
# test.conditions: FL-SMARCA4 IC50, Table 3.2; ATPase assay, enzyme 5 nM, ATP 250 uM, chicken mononucleosome 10 nM, 30 min preincubation
# reported IC50; entries follow

See these solved cases before continuing.
{"smiles.input": "Cc1nc(-c2cc(C(=O)Nc3ccc(=O)n(C)c3)n(C)c2)cs1", "test.result": "> 50 µM"}
{"smiles.input": "CCn1cc(NC(=O)c2cc(Cl)c(Cl)s2)cc(C(C)C)c1=O", "test.result": "> 50 µM"}
{"smiles.input": "CCn1cc(NC(=O)c2cc(C)nn2C)ccc1=O", "test.result": "> 50 µM"}
{"smiles.input": "CCn1cc(NC(=O)c2cc(Cl)c(Cl)n2C2CC2)ccc1=O", "test.result": "> 50 µM"}

[Q] Please provide the recorded IC50 for `CCn1cc(NC(=O)c2cnc(C#N)s2)ccc1=O` , tested on UniProtKB P51532.
[A] 0.649 µM

----------
# pIC50 values compiled below
# target.or.test.system: FL-SMARCA4 (Homo sapiens, UniProt P51532)
# Sequence (P51532 whole entry): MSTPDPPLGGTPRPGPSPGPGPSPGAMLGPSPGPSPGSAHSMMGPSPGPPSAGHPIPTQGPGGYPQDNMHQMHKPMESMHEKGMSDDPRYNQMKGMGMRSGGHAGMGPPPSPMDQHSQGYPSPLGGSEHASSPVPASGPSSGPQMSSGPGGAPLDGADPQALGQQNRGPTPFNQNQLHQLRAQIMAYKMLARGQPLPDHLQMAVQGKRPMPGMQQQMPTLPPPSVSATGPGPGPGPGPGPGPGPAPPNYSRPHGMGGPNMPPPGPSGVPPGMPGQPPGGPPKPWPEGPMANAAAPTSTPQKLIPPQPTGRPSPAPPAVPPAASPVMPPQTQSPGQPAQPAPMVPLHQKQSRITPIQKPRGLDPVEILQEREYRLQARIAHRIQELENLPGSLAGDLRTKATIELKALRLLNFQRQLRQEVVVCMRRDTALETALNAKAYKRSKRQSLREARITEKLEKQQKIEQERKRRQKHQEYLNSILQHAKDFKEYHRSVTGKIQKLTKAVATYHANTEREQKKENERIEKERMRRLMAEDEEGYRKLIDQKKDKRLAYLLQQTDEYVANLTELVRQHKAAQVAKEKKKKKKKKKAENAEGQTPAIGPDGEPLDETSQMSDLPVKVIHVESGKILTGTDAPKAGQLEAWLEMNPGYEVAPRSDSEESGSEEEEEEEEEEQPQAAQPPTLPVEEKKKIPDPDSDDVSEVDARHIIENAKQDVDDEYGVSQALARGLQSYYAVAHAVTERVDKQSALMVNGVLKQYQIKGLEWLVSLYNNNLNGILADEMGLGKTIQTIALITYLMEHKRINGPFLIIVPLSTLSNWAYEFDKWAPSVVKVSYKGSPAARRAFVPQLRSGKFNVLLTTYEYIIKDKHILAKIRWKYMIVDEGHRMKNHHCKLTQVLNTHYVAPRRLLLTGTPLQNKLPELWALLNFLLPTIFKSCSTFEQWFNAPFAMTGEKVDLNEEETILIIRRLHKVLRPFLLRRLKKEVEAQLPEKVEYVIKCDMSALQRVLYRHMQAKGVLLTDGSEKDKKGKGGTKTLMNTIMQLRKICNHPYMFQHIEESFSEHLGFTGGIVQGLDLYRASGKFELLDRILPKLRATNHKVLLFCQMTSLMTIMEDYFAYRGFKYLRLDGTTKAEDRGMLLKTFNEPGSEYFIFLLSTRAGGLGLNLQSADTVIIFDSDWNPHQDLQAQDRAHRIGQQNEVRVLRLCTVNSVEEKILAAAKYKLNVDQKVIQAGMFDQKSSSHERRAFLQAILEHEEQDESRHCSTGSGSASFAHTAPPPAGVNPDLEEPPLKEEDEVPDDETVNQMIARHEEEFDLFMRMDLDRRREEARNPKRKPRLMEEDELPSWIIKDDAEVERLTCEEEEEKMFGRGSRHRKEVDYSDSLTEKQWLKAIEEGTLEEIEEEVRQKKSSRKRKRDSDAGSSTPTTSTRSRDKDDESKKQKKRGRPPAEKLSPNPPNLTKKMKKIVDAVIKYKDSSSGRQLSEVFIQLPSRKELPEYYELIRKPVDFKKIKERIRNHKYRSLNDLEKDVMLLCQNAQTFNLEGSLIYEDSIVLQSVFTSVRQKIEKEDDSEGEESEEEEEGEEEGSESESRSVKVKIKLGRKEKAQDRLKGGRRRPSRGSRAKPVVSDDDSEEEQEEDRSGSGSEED
# experiment: SMARCA4 ATPase activity assay (ADP-Glo, chicken mononucleosome substrate)
# test.conditions: FL-SMARCA4 IC50, Table 3.2; ATPase assay, enzyme 5 nM, ATP 250 uM, chicken mononucleosome 10 nM, 30 min preincubation
Answer as the number alone; pIC50 is minus log10 of concentration in mol/L.

{"smiles.input": "N#Cc1[nH]c(C(=O)Nc2ccc(=O)n(CCF)c2)cc1Cl", "pIC50": 6.26}

[Q] Which measured pIC50 value corresponds to `CNc1c(C(=O)Nc2cc(F)c(=O)n(CC(F)F)c2)sc(Cl)c1Cl` ?
[A] 4.35

[Q] Item `N#Cc1cc(C(=O)Nc2cc(F)c(=O)n(CCF)c2)[nH]c1Cl` has what recorded pIC50?
[A] 5.72

[Q] Record request: pIC50 value, item `N#Cc1ncc(C(=O)Nc2cc(F)c(=O)n(CC(F)(F)F)c2)s1`
[A] 7.17

----------
Below, each of the compounds is paired with its reported IC50 value.
# target.or.test.system: FL-SMARCA2 (full-length human SMARCA2 isoform 1) (Homo sapiens, UniProt P51531)
# Construct: FLAG tag (YKDDDDK) (C); made in house; host or cells: Sf21 insect cells (baculovirus, pFastBacI)
# Sequence (P51531 with tags, fused parts or gaps): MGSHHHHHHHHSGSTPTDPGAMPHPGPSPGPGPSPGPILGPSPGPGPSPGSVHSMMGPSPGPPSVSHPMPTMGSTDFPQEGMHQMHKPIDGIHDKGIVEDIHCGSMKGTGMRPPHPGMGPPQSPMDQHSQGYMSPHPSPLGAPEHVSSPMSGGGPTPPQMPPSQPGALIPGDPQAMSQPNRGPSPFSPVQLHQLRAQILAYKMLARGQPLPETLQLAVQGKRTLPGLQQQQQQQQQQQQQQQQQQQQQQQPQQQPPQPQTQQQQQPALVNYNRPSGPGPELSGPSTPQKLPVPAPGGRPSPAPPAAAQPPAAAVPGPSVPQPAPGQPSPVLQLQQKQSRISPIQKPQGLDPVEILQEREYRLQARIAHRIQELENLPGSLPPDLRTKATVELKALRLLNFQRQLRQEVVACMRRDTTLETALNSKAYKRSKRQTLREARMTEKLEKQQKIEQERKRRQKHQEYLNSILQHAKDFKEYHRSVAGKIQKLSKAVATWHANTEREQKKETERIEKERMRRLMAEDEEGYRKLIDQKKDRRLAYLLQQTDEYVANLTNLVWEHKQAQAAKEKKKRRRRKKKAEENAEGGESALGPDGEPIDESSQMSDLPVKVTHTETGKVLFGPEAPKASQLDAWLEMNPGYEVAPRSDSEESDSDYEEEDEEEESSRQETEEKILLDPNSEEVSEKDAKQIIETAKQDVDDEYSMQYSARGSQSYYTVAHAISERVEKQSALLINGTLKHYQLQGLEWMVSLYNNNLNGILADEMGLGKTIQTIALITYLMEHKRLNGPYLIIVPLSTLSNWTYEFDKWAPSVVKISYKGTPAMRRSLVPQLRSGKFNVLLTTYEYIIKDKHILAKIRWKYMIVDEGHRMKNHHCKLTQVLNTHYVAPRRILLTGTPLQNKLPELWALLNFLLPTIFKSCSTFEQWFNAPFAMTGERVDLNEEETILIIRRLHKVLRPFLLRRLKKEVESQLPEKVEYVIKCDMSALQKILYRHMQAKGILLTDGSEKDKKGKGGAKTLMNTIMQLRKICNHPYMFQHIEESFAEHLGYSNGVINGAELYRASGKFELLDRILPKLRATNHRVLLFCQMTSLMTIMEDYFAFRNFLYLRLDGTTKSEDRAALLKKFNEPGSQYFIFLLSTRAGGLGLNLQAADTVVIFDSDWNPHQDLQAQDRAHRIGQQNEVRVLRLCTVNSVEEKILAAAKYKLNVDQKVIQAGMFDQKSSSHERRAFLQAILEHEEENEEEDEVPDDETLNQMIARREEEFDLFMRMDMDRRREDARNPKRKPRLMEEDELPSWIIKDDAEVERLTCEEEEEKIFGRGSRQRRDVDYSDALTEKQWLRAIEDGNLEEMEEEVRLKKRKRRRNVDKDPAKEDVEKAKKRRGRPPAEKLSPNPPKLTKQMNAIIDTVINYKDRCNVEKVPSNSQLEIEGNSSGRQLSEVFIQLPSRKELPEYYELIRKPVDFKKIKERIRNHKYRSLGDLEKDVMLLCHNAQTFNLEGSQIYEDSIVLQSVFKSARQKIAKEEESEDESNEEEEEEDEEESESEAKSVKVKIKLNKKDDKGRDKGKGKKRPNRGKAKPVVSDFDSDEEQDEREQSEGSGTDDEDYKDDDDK
# experiment: SMARCA2 ATPase activity assay (ADP-Glo, chicken mononucleosome substrate)
# Format: biochemical
# test.conditions: Table 3a.1; SMARCA2 5 nM, ATP 250 uM, mononucleosome 10 nM

The examples below pair each entry with its known result.
{"compound": "CCn1cc(NC(=O)c2cc3ccccc3s2)ccc1=O [Compound 36a]", "IC50": "> 50 µM"}
{"compound": "CCn1cc(NC(=O)c2c[nH]c3c(Cl)cccc23)ccc1=O [Compound 24a]", "IC50": "> 50 µM"}
{"compound": "CN1CC(C(=O)Nc2cc(F)c(=O)n(CCF)c2)CCC1=O (centres unmarked) [Compound 49a]", "IC50": "> 50 µM"}
{"compound": "CCn1cc(NC(=O)c2nc3cc(Cl)c(Cl)cc3[nH]2)ccc1=O [Compound 42a]", "IC50": "13.2 µM"}

// switching to the query compound
[Q] Item under review: `CC(C)COc1ncccc1C(=O)Nc1cc(Cl)c(=O)n(C)c1` . Reported IC50?
[A] > 50 µM
